src = patent US12448369B2

tested on: Rabbit Psoas myofibrils (skeletal myosin ATPase); assay: Myofibril ATPase assay, rabbit psoas (skeletal) myofibrils; assay type: biochemical; conditions: rabbit psoas myofibrils; Y75 value
Quick reference: Skeletal EC25 of the listed items.
// note: answer is a bare numeric in µM

Worked cases, answers included:
MOLECULE	OBSERVATION_TYPE	RECORDED_NUMBER
Cc1nccc2[nH]c(=O)c(CC(=O)N[C@H](C)c3ccc(C#N)cc3F)c(C#N)c12 [compound 153]	Skeletal EC25	3.09
Cc1nccc2[nH]c(=O)c(CC(=O)N[C@@H](C)c3ncc(F)cc3F)c(C)c12 (single isomer, unassigned) [compound 379]	Skeletal EC25	0.36
CC(C(=O)N[C@@H](C)c1ccc(F)cc1F)c1cc2c(C(F)(F)F)nccc2[nH]c1=O (single isomer, unassigned) [compound 3518]	Skeletal EC25	9.37

// moving on: another record for Skeletal EC25
stdin: Entry Cc1nccc2[nH]c(=O)c(CC(=O)N[C@@H](C)c3ncc(C#N)cn3)c(C)c12 [compound 483] : reported Skeletal EC25 = ?
stdout: 7.32

---

tested on: Porcine atria myofibrils (atrial myosin ATPase); assay: Myofibril ATPase assay, porcine atria myofibrils; assay type: biochemical; conditions: Y75 value (no ‡ mark); porcine atria myofibrils
Quick reference: Atrial EC25 of the listed items.
// note: answer is a bare numeric in nM

MOLECULE	Atrial EC25 [nM]
Cc1c(C2(C(=O)N[C@H](C)c3ncc(C#N)cn3)CC2)c(=O)[nH]c2ccc(F)cc12 (single isomer, unassigned)	430

stdin: Entry Cc1nc(C#N)cnc1[C@H](C)NC(=O)Cc1c(C)c2c(C#N)c(F)ccc2[nH]c1=O (single isomer, unassigned) : reported Atrial EC25 = ?
stdout: 90

stdin: Entry C[C@H](NC(=O)Cc1c(C2CC2)c2c(F)c(F)ccc2[nH]c1=O)c1ccc(C#N)nn1 (single isomer, unassigned) : reported Atrial EC25 = ?
stdout: 1060

---

System: Rabbit Psoas myofibrils (skeletal myosin ATPase)
Experiment: Myofibril ATPase assay, rabbit psoas (skeletal) myofibrils
Assay type: biochemical
Conditions: rabbit psoas myofibrils; Y75 value
Procedure: Example 1. Myofibril ATPase Assay Myofibril ATPase assays are known in the art to be useful in evaluating small molecules for the treatment of HCM and other cardiac indications. Myosin ATPase activity is assessed by using a coupled reaction system, in which ADP generated by the myosin ATPase function is coupled to the disappearance of NADH through the pyruvate kinase/lactate dehydrogenase (PK-LDH) system. […]
OBSERVATION_TYPE: Skeletal EC25 (nM)
// note: answer is a bare numeric in nM

Worked cases, answers included:
COMPOUND	UNIT_ABBREVIATION	RECORDED_NUMBER
Cc1nccc2[nH]c(=O)c(C(F)(F)C(=O)N[C@@H](C)c3cnc(C#N)cn3)c(C)c12 (single isomer, unassigned)	nM	2680
Cc1ccc2[nH]c(=O)c(CC(=O)N[C@@H](C)c3ccc(F)cc3F)c(C)c2n1	nM	190
C[C@H](NC(=O)[C@@H](C)c1cc2nc(C#N)ccc2[nH]c1=O)c1ccc(F)cc1F (single isomer, unassigned)	nM	100000
COc1cccc([C@@H](C)NC(=O)Cc2c(C)c3c(C)nccc3[nH]c2=O)n1 (single isomer, unassigned)	nM	100000
Cc1nccc2[nH]c(=O)c(CC(=O)N[C@H](CCO)c3ccc(F)cc3F)c(C)c12 (single isomer, unassigned)	nM	100000
Cc1nccc2[nH]c(=O)c(CC(=O)N[C@H]3COc4cc(C#N)cc(F)c43)c(C)c12 (single isomer, unassigned)	nM	1840
Cc1nc(C#N)cnc1[C@@H](C)NC(=O)Cc1c(C)c2c(C)nccc2[nH]c1=O	nM	7590
Cc1nccc2[nH]c(=O)c(CC(=O)N[C@@H](C)c3ccccc3O)c(C)c12 (single isomer, unassigned)	nM	100000
Cc1nccc2[nH]c(=O)c([C@@H](C)C(=O)N[C@@H](C)c3ncc(C#N)cc3F)c(C)c12 (single isomer, unassigned)	nM	750
Cc1cc(C#N)nnc1[C@@H](C)NC(=O)Cc1c(C)c2c(C)nccc2[nH]c1=O	nM	260

stdin: Query the reported Skeletal EC25 for Rabbit Psoas myofibrils (skeletal myosin ATPase); item: Cc1nccc2[nH]c(=O)c(CC(=O)N[C@@H](C)c3ccc(F)cc3F)c(C)c12
stdout: 30

stdin: Query the reported Skeletal EC25 for Rabbit Psoas myofibrils (skeletal myosin ATPase); item: COC[C@H](NC(=O)Cc1c(C)c2c(C#N)nccc2[nH]c1=O)c1ncc(F)cc1F
stdout: 30

stdin: Query the reported Skeletal EC25 for Rabbit Psoas myofibrils (skeletal myosin ATPase); item: Cc1c(CC(=O)N[C@@H](CO)c2ccc(F)cc2F)c(=O)[nH]c2ccnc(C(F)(F)F)c12
stdout: 20

stdin: Query the reported Skeletal EC25 for Rabbit Psoas myofibrils (skeletal myosin ATPase); item: C[C@H](NC(=O)Cc1c(C(F)(F)F)c2cnccc2[nH]c1=O)c1ccc(F)cc1F
stdout: 50

---

Quick reference: Atrial EC25 of the listed items.
tested on: Porcine atria myofibrils (atrial myosin ATPase); experiment: Myofibril ATPase assay, porcine atria myofibrils; format: biochemical; settings: porcine atria myofibrils; Y75 value (75% activity relative to no compound)

COMPOUND	ASSAY_SYSTEM	Atrial EC25
Cc1c(CC(=O)N[C@H](C)c2ccc(C#N)cn2)c(=O)[nH]c2ccc(C(F)(F)F)nc12 [compound 459]	Porcine atria myofibrils (atrial myosin ATPase)	3.13 µM
Cc1ccc2[nH]c(=O)c(CC(=O)N[C@@H](C)c3ncc(C#N)cc3F)c(C)c2n1 [compound 469]	Porcine atria myofibrils (atrial myosin ATPase)	0.15 µM

stdin: Query the reported Atrial EC25 for Porcine atria myofibrils (atrial myosin ATPase); item: Cc1nccc2[nH]c(=O)c(CC(=O)N[C@@H](CO)c3ccccn3)c(C)c12 (single isomer, unassigned) [compound 317]
stdout: 100.00 µM

stdin: Query the reported Atrial EC25 for Porcine atria myofibrils (atrial myosin ATPase); item: Cc1c(CC(=O)N[C@H](CO)c2ccc(C#N)cc2F)c(=O)[nH]c2cnnc(C#N)c12 [compound 175]
stdout: 100.00 µM

stdin: Query the reported Atrial EC25 for Porcine atria myofibrils (atrial myosin ATPase); item: Cc1c(CC(=O)N[C@H]2COc3cc(F)cc(F)c32)c(=O)[nH]c2ccnc(C#N)c12 (single isomer, unassigned) [compound 274]
stdout: 0.04 µM

stdin: Query the reported Atrial EC25 for Porcine atria myofibrils (atrial myosin ATPase); item: Cc1c([C@@H](Cc2ccccc2)C(=O)N[C@@H](C)c2ccc(F)cc2F)c(=O)[nH]c2ccnc(F)c12 (single isomer, unassigned) [compound 358]
stdout: 23.89 µM

stdin: Query the reported Atrial EC25 for Porcine atria myofibrils (atrial myosin ATPase); item: Cc1c(CC(=O)N[C@@H](C)c2ccc(F)cc2F)c(=O)[nH]c2ccnc(N3CCOCC3)c12 [compound 345]
stdout: 10.74 µM

stdin: Query the reported Atrial EC25 for Porcine atria myofibrils (atrial myosin ATPase); item: Cc1c(CC(=O)N[C@H](C)c2ncc(F)cc2F)c(=O)[nH]c2ccc(C#N)nc12 (single isomer, unassigned) [compound 249]
stdout: 100.00 µM

stdin: Query the reported Atrial EC25 for Porcine atria myofibrils (atrial myosin ATPase); item: C[C@H](NC(=O)Cc1cc2c(OCC(F)(F)F)nccc2[nH]c1=O)c1ccc(F)cc1F [compound 436]
stdout: 100.00 µM

---

target: Porcine ventricle myofibrils (ventricular myosin ATPase) (Sus scrofa); construct: Myofibrils from porcine cardiac muscle was isolated from the left ventricle of Yucatan minipigs; tissue Exemplar Genetics; host or cells: left ventricle of Yucatan minipigs, myofibrils prepared in house; experiment: Myofibril ATPase assay, porcine ventricle myofibrils; assay type: biochemical, porcine (Yucatan minipigs); conditions: Y75 value (no ‡ mark); porcine ventricle myofibrils
Sequence (P79293 whole entry): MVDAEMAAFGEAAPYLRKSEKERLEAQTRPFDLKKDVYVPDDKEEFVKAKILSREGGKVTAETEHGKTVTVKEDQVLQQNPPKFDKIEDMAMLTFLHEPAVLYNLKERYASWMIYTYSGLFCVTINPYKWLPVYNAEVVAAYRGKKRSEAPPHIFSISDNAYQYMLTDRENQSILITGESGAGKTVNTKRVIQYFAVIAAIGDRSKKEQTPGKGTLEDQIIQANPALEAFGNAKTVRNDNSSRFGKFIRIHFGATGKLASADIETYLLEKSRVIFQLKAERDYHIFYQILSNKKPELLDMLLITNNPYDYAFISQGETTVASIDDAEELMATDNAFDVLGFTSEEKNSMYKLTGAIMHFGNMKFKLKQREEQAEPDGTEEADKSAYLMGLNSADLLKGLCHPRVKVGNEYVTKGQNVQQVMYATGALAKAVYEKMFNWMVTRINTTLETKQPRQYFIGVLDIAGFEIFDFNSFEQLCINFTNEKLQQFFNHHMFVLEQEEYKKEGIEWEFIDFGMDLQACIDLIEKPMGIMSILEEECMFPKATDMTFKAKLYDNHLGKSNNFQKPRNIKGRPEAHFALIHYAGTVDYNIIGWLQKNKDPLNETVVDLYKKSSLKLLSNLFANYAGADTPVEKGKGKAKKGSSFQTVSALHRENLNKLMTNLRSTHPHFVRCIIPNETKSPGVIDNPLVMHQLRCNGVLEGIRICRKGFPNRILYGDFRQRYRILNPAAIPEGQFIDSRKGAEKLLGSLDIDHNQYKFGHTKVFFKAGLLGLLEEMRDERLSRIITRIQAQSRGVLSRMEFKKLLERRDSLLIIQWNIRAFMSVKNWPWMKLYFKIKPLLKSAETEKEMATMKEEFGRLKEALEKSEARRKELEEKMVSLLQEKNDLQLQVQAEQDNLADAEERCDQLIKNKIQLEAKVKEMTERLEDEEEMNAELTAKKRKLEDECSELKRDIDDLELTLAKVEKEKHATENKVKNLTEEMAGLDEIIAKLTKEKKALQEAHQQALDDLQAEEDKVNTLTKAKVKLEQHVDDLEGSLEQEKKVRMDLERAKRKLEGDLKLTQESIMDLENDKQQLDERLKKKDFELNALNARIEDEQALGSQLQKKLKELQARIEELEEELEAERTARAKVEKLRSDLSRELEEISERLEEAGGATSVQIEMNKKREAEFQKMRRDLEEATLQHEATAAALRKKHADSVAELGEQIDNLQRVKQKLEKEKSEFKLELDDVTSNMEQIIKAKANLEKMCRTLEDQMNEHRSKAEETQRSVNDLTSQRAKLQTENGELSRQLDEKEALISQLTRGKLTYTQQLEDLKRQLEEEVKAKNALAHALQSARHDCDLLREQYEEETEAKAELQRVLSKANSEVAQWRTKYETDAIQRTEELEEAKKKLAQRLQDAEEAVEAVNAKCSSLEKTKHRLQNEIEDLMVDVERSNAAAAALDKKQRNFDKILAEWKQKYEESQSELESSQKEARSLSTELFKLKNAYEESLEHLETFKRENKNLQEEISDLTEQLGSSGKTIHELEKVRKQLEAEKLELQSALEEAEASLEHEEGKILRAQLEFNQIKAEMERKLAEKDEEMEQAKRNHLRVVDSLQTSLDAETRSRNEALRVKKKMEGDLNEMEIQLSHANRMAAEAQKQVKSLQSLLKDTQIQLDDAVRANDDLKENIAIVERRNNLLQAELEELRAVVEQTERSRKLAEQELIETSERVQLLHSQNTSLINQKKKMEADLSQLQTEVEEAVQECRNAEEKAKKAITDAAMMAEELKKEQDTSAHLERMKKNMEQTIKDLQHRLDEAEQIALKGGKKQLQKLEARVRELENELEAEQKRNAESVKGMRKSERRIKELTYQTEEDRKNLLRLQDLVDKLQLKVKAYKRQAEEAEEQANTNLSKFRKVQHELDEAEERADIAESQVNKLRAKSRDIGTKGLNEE
Short version: Ventricular EC25 at least 1000 nM is Criterion met, less is Criterion not met.

COMPOUND	ASSAY_SYSTEM	ASSIGNED_LABEL
Cc1nc(C#N)cnc1[C@H](C)NC(=O)C1(c2cc3c(F)c(F)ccc3[nH]c2=O)CC1 (single isomer, unassigned)	Porcine ventricle myofibrils (ventricular myosin ATPase) (Sus scrofa)	Criterion met
Cc1c(C2(C(=O)N[C@H](C)c3cccc(C#N)n3)CC2)c(=O)[nH]c2ccc(F)cc12 (single isomer, unassigned)	Porcine ventricle myofibrils (ventricular myosin ATPase) (Sus scrofa)	Criterion met
C[C@H](NC(=O)Cc1c(C2CC2)c2c(F)c(F)ccc2[nH]c1=O)c1ccc(C#N)cn1	Porcine ventricle myofibrils (ventricular myosin ATPase) (Sus scrofa)	Criterion met
Cc1c(C(F)(F)C(=O)N[C@H](C)c2ccc(F)cc2F)c(=O)[nH]c2ccc(F)cc12	Porcine ventricle myofibrils (ventricular myosin ATPase) (Sus scrofa)	Criterion met
Cc1c(C(F)(F)C(=O)N[C@@H](C)c2ncc(C#N)cc2F)c(=O)[nH]c2cccc(C#N)c12 (single isomer, unassigned)	Porcine ventricle myofibrils (ventricular myosin ATPase) (Sus scrofa)	Criterion not met

stdin: Confirm if Ventricular EC25 reported for the compound Cc1c(F)ccc2[nH]c(=O)c(C(F)(F)C(=O)N[C@@H](C)c3ncc(C#N)cc3F)c(C)c12 (single isomer, unassigned) is 1000 nM or above.
stdout: Criterion not met

stdin: Confirm if Ventricular EC25 reported for the compound Cc1c(CC(=O)N[C@@H](C)c2ncc(C#N)cc2F)c(=O)[nH]c2cccc(C#N)c12 is 1000 nM or above.
stdout: Criterion not met

stdin: Confirm if Ventricular EC25 reported for the compound Cc1c(C(F)(F)C(=O)N[C@H](C)c2cnc(C#N)cn2)c(=O)[nH]c2ccc(F)cc12 (single isomer, unassigned) [compound 2563] is 1000 nM or above.
stdout: Criterion not met

stdin: Confirm if Ventricular EC25 reported for the compound C[C@@H](NC(=O)Cc1c(O)c2cc(F)c(F)cc2[nH]c1=O)c1ccc(C#N)cc1F is 1000 nM or above.
stdout: Criterion met

stdin: Confirm if Ventricular EC25 reported for the compound C[C@@H](NC(=O)Cc1cc2c(C(F)(F)F)c(F)ccc2[nH]c1=O)c1ncc(C#N)cn1 (single isomer, unassigned) is 1000 nM or above.
stdout: Criterion met

stdin: Confirm if Ventricular EC25 reported for the compound Cc1c(C(F)(F)C(=O)N[C@H](C)c2cnc(C#N)cn2)c(=O)[nH]c2ccc(F)cc12 (single isomer, unassigned) [compound 4827] is 1000 nM or above.
stdout: Criterion not met

stdin: Confirm if Ventricular EC25 reported for the compound C[C@H](NC(=O)C(F)(F)c1cc2cc(F)ccc2[nH]c1=O)c1ccc(F)cc1F is 1000 nM or above.
stdout: Criterion met

stdin: Confirm if Ventricular EC25 reported for the compound Cc1c(C(F)(F)C(=O)N[C@@H](C)c2ccc(F)cc2F)c(=O)[nH]c2ccc(F)cc12 is 1000 nM or above.
stdout: Criterion not met

stdin: Confirm if Ventricular EC25 reported for the compound Cc1c(CC(=O)N[C@H](C)c2ncc(C3COC3)cn2)c(=O)[nH]c2ccc(F)c(F)c12 (single isomer, unassigned) is 1000 nM or above.
stdout: Criterion met
